pEC50 values by entry
- experimentalTarget: FGF receptor/BKL complex
- Sequence (Q86Z14 whole entry, one chain of several): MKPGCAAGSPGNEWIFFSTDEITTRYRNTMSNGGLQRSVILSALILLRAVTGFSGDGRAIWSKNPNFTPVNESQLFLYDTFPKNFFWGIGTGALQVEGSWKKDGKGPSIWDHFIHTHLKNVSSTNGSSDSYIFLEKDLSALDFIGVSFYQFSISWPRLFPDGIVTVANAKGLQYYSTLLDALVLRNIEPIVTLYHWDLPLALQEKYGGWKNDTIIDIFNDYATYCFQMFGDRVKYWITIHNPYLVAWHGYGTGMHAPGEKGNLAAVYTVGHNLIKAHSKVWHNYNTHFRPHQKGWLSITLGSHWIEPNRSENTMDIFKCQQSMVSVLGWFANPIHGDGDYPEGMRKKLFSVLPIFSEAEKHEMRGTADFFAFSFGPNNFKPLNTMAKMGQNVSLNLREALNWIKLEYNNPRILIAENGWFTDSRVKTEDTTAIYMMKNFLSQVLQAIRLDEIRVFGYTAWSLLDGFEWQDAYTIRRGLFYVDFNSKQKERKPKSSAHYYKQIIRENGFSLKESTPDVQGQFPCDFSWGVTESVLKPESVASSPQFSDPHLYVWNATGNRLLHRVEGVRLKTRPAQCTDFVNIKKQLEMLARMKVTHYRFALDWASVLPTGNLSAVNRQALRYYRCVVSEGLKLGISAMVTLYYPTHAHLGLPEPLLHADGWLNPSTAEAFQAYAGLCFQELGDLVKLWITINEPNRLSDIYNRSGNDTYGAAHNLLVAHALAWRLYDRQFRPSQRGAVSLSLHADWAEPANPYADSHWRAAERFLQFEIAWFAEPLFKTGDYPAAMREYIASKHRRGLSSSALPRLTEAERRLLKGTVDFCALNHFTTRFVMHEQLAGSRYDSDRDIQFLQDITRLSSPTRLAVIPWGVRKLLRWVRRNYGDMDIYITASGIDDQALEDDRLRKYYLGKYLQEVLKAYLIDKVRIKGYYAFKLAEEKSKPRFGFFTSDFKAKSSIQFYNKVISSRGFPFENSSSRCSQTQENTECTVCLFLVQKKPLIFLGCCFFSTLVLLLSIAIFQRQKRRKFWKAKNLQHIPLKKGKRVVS
- assayInfo: FGF receptor potency in an Erk phosphorylation assay in HEK293 overexpressing human BKL
- Format: cell-based
- reportedConditions: HEK293/BKL cells, pERK after 12 minutes, presence of 0.1% HSA; read-out: EC50 (0.1% HSA)
The value called pEC50 is obtained by taking minus log10 of the concentration in mol/L.

1. S{Beta-174}-[2-[2-[[2-[2-[2-[[2-[2-[2-[[(4S)-4-carboxy-4-(13-carboxytridecanoyl-amino)butanoyl]amino]ethoxy]ethoxy]acetyl]amino]ethoxy]ethoxy]acetyl]amino]-ethylamino]-2-oxoethyl]-Ala[Gln121,Leu168,Cy … (protein) HPIPDSSPLLQFGGQVRQRYLYTDDAQQTEAHLEIREDGTVGGAADQSPESLLQLKALKPGVIQILGVKTSRFLCQRPDGALYGSLHFDPEACSFRELLLEDGYNVYQSEAHGLPLHLPGQKSPHRDPAPRGPARFLPLPGLPPALPEPPGILAPQPPDVGSSDPLSLVGPSQCRSPSYAS    8.40

Now let's try a different one.
Looking up S{Beta-181}-[2-[2-[[2-[2-[2-[[2-[2-[2-[[(4S)-4-carboxy-4-(15-carboxypentadecanoyl-amino)butanoyl]amino]ethoxy]ethoxy]acetyl]amino]ethoxy]ethoxy]acetyl]amino]-ethylamino]-2-oxoethyl]-Ala[Gln121,Leu168, … (protein) HPIPDSSPLLQFGGQVRQRYLYTDDAQQTEAHLEIREDGTVGGAADQSPESLLQLKALKPGVIQILGVKTSRFLCQRPDGALYGSLHFDPEACSFRELLLEDGYNVYQSEAHGLPLHLPGQKSPHRDPAPRGPARFLPLPGLPPALPEPPGILAPQPPDVGSSDPLSLVGPSQGRSPSYAC , I found its pEC50 recorded as 7.14
